test system: Bacillus cereus; experiment: Antibacterial activity against Bacillus cereus MTCC 430 after 24 hrs by agar dilution method; assay type: functional; conditions: MTCC 430, 24 h
Each entry below carries its reported MIC.
Measured property: MIC (µg/mL)

- CC(=O)NC[C@H]1CN(c2ccc(N3CCN(C(=O)C(=O)/C=C/c4ccco4)CC3)c(F)c2)C(=O)O1: 0.78
- CC(=O)NC[C@H]1CN(c2ccc(N3CCN(C(=O)C(=O)/C=C/c4ccsc4)CC3)c(F)c2)C(=O)O1: 0.78
- CC(=O)NC[C@H]1CN(c2ccc(N3CCN(C(=O)C(=O)/C=C/c4cccs4)CC3)c(F)c2)C(=O)O1: 0.39
- CC(=O)NC[C@H]1CN(c2ccc(N3CCN(C(=O)C(=O)/C=C/c4ccc(F)c(F)c4)CC3)c(F)c2)C(=O)O1: 0.39
- CC(=O)NC[C@H]1CN(c2ccc(N3CCN(C(=O)C(=O)/C=C/c4ccc(Cl)cc4)CC3)c(F)c2)C(=O)O1: 0.39
- CC(=O)NC[C@H]1CN(c2ccc(N3CCN(C(=O)C(=O)/C=C/c4ccc(C)cc4)CC3)c(F)c2)C(=O)O1: 0.19
- CN[C@H](CC(C)C)C(=O)N[C@H]1C(=O)N[C@@H](CC(N)=O)C(=O)N[C@H]2C(=O)N[C@H]3C(=O)N[C@H](C(=O)N[C@H](C(=O)O)c4cc(O)cc(O)c4-c4cc3ccc4O)[C@H](O)c3ccc(c(Cl)c3)Oc3cc2cc(c3O[C@@H]2O[C@H](CO)[C@@H](O)[C@H](O)[C@H]2O[C@H]2C[C@](C)(N)[C@H](O)[C@H](C)O2)Oc2ccc(cc2Cl)[C@H]1O: 0.19
- CC(=O)NC[C@H]1CN(c2ccc(N3CCN(C(=O)C(=O)/C=C/c4ccc(F)cc4)CC3)c(F)c2)C(=O)O1: 0.39
- CC(=O)NC[C@H]1CN(c2ccc(N3CCOCC3)c(F)c2)C(=O)O1: 0.78
- CC(=O)NC[C@H]1CN(c2ccc(N3CCN(C(=O)C(=O)/C=C/c4ccccc4)CC3)c(F)c2)C(=O)O1: 0.39
- CC(=O)NC[C@H]1CN(c2ccc(N3CCN(C(=O)C(=O)/C=C/c4ccc(C(F)(F)F)cc4)CC3)c(F)c2)C(=O)O1: 1.56
